# credit: patent US20250144253A1

Heads up, these compounds all have pKd values measured for PD-L1 (Homo sapiens).
Answers are plain numbers, as −log10 of the molar value.

Solved entries:
CN(CC(=O)NCC(S(=O)(=O)O)S(=O)(=O)O)Cc1cc(Cl)c(OCc2cccc(-c3cccc(OCc4cn(CCCC5CCN(C(=O)CN6CCN(CC(=O)O)CCN(CC(=O)O)CCN(CC(=O)O)CC6)CC5)nn4)c3)c2Br)cc1OCc1cncc(S(C)(=O)=O)c1 : 6.23
Cc1c(COc2cc(OCc3cncc(S(C)(=O)=O)c3)c(CN(C)CC(=O)NCC(S(=O)(=O)O)S(=O)(=O)O)cc2Cl)cccc1-c1cccc(OCc2cn(CCCC3CCN(C(=O)CN4CCN(CC(=O)O)CCN(CC(=O)O)CCN(CC(=O)O)CC4)CC3)nn2)c1C : 6.91

Parameter requested: pKd. Apply to each item below.
1. Cc1c(COc2cc(OCc3cncc(C#N)c3)c(CN(C)CC(=O)NCC(S(=O)(=O)O)S(=O)(=O)O)cc2Cl)cccc1-c1cccc(OCc2cn(CCCN3CCN(C(=O)CN4CCN(CC(=O)O)CCN(CC(=O)O)CCN(CC(=O)O)CC4)CC3)nn2)c1C
2. CN(CC(=O)NCC(S(=O)(=O)O)S(=O)(=O)O)Cc1cc(Cl)c(OCc2cccc(-c3cccc(OCc4cn(CCOCCOCCN5CCN(C(=O)CN6CCN(CC(=O)O)CCN(CC(=O)O)CCN(CC(=O)O)CC6)CC5)nn4)c3)c2Br)cc1OCc1cncc(S(C)(=O)=O)c1

1: 6.89; 2: 6.45

* * *

Assay: Water solubility by adding water in 1 μl steps to 1 mg compound
Format: physicochemical
Details: thermodynamic from solid
Parameter measured: solubility (mg/mL)
One number for each entry, in mg/mL.

Examples with answers:
Cc1c(COc2cc(OCc3cncc(S(C)(=O)=O)c3)c(CN(C)CC(=O)NCC(S(=O)(=O)O)S(=O)(=O)O)cc2Cl)cccc1-c1cccc(OCc2cn(CCCF)nn2)c1C [Compound 88] : 85
Cc1c(COc2cc(OCc3cncc(S(C)(=O)=O)c3)c(CN(C)CC(=O)NCC(S(=O)(=O)O)S(=O)(=O)O)cc2Cl)cccc1-c1cccc(OCc2cn([C@@H]3O[C@H](CO)[C@@H](O)[C@H](O)[C@H]3F)nn2)c1C [Compound 89] : 120
Cc1c(COc2cc(OCc3cncc(S(C)(=O)=O)c3)c(CN(C)CC(=O)NCC(S(=O)(=O)O)S(=O)(=O)O)cc2Cl)cccc1-c1cccc(OCc2cn([C@@H]3O[C@H](CF)[C@@H](O)[C@H](O)[C@H]3O)nn2)c1C [Compound 90] : 115
CN(CC(=O)NCC(S(=O)(=O)O)S(=O)(=O)O)Cc1cc(Cl)c(OCc2cccc(-c3cccc(OCc4cn([C@@H]5O[C@H](CO)[C@@H](O)[C@H](O)[C@H]5F)nn4)c3)c2Br)cc1OCc1cncc(S(C)(=O)=O)c1 [Compound 86] : 110
CN(CC(=O)NCC(S(=O)(=O)O)S(=O)(=O)O)Cc1cc(Cl)c(OCc2cccc(-c3cccc(OCc4cn([C@@H]5O[C@H](CF)[C@@H](O)[C@H](O)[C@H]5O)nn4)c3)c2Br)cc1OCc1cncc(S(C)(=O)=O)c1 [Compound 87] : 115

Now turn to the next compound.
Which value of solubility has been reported for CN(CC(=O)NCC(S(=O)(=O)O)S(=O)(=O)O)Cc1cc(Cl)c(OCc2cccc(-c3cccc(OCc4cn(CCCF)nn4)c3)c2Br)cc1OCc1cncc(S(C)(=O)=O)c1 [Compound 85] in the records?
80
